molecular target: Phosphatidylinositol 4,5-bisphosphate 3-kinase catalytic subunit gamma isoform (Homo sapiens); experiment: Inhibition of PI3Kgamma in SDF-1alpha stimulated human whole blood assessed as reduction in phospho-AKT kinase activity preincubated for 1 hr followed by SDF-1alpha stimulation and measured after 2 mins by flow cytometric analysis; assay type: tissue-based
Sequence (P48736 whole entry, canonical isoform): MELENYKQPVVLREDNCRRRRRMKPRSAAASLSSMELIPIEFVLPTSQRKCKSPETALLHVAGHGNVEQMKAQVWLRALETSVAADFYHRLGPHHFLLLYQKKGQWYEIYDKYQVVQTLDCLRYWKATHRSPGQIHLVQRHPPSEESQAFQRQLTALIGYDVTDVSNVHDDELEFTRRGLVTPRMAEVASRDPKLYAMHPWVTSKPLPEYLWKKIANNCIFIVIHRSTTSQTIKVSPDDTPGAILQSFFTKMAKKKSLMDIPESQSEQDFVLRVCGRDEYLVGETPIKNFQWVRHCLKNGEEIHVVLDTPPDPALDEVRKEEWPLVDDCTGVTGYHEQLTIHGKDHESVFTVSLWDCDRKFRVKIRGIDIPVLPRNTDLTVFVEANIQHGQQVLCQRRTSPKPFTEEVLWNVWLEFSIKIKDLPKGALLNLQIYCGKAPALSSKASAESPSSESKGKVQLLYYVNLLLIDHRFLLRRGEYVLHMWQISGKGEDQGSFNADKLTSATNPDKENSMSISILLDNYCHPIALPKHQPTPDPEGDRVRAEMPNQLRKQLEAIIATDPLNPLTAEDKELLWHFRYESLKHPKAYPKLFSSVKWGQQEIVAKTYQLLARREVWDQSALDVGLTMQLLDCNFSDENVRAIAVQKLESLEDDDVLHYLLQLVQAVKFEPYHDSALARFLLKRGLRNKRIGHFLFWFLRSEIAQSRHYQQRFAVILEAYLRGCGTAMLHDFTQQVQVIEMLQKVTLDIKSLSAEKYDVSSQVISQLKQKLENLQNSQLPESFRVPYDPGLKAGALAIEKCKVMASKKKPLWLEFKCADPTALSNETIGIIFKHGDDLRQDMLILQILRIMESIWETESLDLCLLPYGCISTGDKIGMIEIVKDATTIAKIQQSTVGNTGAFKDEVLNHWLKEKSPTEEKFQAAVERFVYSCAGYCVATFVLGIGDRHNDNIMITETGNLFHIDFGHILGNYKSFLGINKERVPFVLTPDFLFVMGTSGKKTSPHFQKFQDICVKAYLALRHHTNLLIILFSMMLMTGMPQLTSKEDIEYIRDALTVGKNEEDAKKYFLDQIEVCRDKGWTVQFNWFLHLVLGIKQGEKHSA
property_label: IC50 (nM)

1. C[C@@H](C1CC1)N1Cc2cc(-c3ccn4nc(N)c(C(=O)N[C@H]5CC[C@@](C)(O)CC5)c4n3)cc(OC(F)F)c2C1=O = 300
2. C[C@@H](C1CC1)N1Cc2cc(-c3ccn4nc(N)c(C(=O)N[C@@H](CO)C5CC5)c4n3)cc(OC(F)F)c2C1=O = 510
3. C[C@H](N1Cc2cc(-c3ccn4nc(N)c(C(=O)N[C@H]5CC[C@@](C)(O)CC5)c4n3)cc(NS(C)(=O)=O)c2C1=O)C(F)(F)F = 800
4. C[C@@H](C1CC1)N1Cc2cc(-c3ccn4nc(N)c(C(=O)N[C@@H](CO)C5CC5)c4n3)cc(NS(C)(=O)=O)c2C1=O = 260

* * *

biological target: Voltage-gated inwardly rectifying potassium channel KCNH2 (Homo sapiens, UniProt Q12809); assay: Inhibition of human ERG by patch clamp assay
Sequence (Q12809 whole entry): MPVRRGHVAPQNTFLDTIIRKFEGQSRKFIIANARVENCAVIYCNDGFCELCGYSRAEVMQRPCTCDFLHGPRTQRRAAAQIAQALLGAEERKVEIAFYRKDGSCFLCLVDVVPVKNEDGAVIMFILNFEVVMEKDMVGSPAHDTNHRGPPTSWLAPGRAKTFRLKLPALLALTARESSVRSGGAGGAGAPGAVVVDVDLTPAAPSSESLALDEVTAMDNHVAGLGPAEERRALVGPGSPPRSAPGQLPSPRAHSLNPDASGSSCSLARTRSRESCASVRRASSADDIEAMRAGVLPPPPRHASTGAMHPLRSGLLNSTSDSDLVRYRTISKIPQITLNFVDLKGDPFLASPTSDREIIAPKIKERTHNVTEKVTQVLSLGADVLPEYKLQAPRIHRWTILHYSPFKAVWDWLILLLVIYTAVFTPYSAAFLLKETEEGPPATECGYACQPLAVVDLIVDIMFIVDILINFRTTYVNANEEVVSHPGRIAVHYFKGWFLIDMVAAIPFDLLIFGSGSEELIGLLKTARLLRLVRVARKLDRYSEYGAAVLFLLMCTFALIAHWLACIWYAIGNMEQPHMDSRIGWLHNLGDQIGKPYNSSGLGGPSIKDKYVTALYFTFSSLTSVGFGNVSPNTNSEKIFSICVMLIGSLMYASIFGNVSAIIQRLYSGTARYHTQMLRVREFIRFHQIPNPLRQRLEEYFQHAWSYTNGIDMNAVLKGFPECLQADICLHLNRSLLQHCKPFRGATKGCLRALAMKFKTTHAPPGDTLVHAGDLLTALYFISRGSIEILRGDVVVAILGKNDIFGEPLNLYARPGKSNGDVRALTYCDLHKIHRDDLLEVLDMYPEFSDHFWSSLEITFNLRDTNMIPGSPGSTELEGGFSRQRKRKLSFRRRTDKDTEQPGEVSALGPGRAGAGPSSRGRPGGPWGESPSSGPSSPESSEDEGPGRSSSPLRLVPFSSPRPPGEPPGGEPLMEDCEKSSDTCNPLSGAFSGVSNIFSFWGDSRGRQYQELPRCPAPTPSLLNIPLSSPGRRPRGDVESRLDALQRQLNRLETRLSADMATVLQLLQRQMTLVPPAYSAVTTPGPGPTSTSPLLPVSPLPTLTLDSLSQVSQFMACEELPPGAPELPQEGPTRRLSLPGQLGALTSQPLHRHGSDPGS
pIC50: −log10 of the molar value.
property_label: pIC50

1) C[C@@H](C1CC1)N1Cc2cc(-c3ccn4nc(N)c(C(=O)N[C@H]5CC[C@@](C)(O)CC5)c4n3)cc(OC(F)F)c2C1=O = < 5.00

* * *

Recorded hepatocyte CLint at 0.5 µM values for a group of compounds are listed next.
experiment: Metabolic stability in human hepatocytes assessed as intrinsic clearance per 10^6 cells at 0.5 uM by LC-MS/MS analysis; format: ADME, cell-based, Hepatocyte; conditions: read-out: CLH
property_label: hepatocyte CLint at 0.5 µM (µL/min/1e6 cells)

1) Cc1cc(-c2ccn3nc(N)c(C(=O)N[C@H]4CCOC4)c3n2)cc2c1C(=O)N([C@@H](C)C1CC1)C2 = 9.35
2) C[C@H](N1Cc2cc(-c3ccn4nc(N)c(C(=O)N[C@@H](CO)C5CC5)c4n3)cc(Cl)c2C1=O)C(F)(F)F = 3.18
3) Cc1cc(-c2ccn3nc(N)c(C(=O)N[C@H](C)CO)c3n2)cc2c1C(=O)N([C@@H](C)C1CC1)C2 = 1.31
4) C[C@@H](C1CC1)N1Cc2cc(-c3ccn4nc(N)c(C(=O)NC5CC5)c4n3)cc(C3CC3)c2C1=O = 4.23
5) C[C@@H](C1CC1)N1Cc2cc(-c3ccn4nc(N)c(C(=O)NC5CC5)c4n3)cc(S(=O)(=O)C3CCC3)c2C1=O = 4.89

* * *

target: Phosphatidylinositol 4,5-bisphosphate 3-kinase catalytic subunit gamma isoform (Homo sapiens); experiment: Inhibition of PI3Kgamma (unknown origin) using PIP2 as substrate preincubated for 1 hr followed by substrate addition and measured after 60 mins in presence of ATP by ADP-glo assay
Recorded IC50 values for a group of molecules are listed next.
property_label: IC50 (nM)

1) C[C@H](N1Cc2cc(-c3ccn4nc(N)c(C(=O)N[C@H]5CC[C@@](C)(O)CC5)c4n3)cc(NS(C)(=O)=O)c2C1=O)C(F)(F)F = 3.2
2) C[C@H](N1Cc2cc(-c3ccn4nc(N)c(C(=O)N[C@@H](CO)C5CC5)c4n3)cc(OC(F)F)c2C1=O)C(F)(F)F = 3.4
3) C[C@@H](C1CC1)N1Cc2cc(-c3ccn4nc(N)c(C(=O)N[C@H]5CC[C@@](C)(O)CC5)c4n3)cc(OC(F)(F)F)c2C1=O = 2.8
4) CCS(=O)(=O)c1cc(-c2ccn3nc(N)c(C(=O)NC4CC4)c3n2)cc2c1C(=O)N([C@@H](C)C1CC1)C2 = 4.8
5) C[C@H](N1Cc2cc(-c3ccn4nc(N)c(C(=O)N[C@@H](CO)C5CC5)c4n3)cc(C3CC3)c2C1=O)C(F)(F)F = 2.5
6) Cc1cc(-c2ccn3nc(N)c(C(=O)NC4CC4)c3n2)cc2c1C(=O)N(CC1CC1)C2 = 10.1
7) C[C@@H](C1CC1)N1Cc2cc(-c3ccn4nc(N)c(C(=O)NC5CC5)c4n3)cc(C(F)(F)F)c2C1=O = 3.6
